Ref: patent US9789100B2

What follows is a collection of IC50 values obtained with Human RET kinase cytoplasmic domain (Homo sapiens (Human), UniProt P07949).
Sequence (P07949 658-1114): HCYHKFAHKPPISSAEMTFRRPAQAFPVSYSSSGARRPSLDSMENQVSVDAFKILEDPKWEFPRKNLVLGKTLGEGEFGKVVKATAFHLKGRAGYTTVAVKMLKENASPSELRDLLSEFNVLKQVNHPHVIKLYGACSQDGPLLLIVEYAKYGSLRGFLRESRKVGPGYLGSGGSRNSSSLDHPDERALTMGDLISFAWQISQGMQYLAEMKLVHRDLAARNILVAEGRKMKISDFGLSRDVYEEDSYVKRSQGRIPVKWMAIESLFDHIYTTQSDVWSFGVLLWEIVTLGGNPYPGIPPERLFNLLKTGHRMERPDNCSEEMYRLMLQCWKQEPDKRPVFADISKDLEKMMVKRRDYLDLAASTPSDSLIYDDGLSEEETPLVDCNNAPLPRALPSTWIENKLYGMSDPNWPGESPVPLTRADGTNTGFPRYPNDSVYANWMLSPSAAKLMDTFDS
Structures can show the parent of a compound that is named as a salt.

[
  {
    "compound": "CCOc1cc(-c2ccc(CC(=O)Nc3cc(-n4cc(C)cn4)cc(C(F)(F)F)c3)c(F)c2)c[nH]c1=O [Example 34, hydrochloride]",
    "IC50": "< 100 nM"
  },
  {
    "compound": "CCOc1cc(-c2ccc(CC(=O)Nc3ccc(C#N)c(C(F)(F)F)c3)c(F)c2)c[nH]c1=O [Example 9]",
    "IC50": "< 100 nM"
  },
  {
    "compound": "CCOc1cc(-c2ccc(CC(=O)Nc3cc(C(F)(F)F)cc(C(F)(F)F)c3)c(F)c2)c[nH]c1=O [Example 25]",
    "IC50": "< 100 nM"
  },
  {
    "compound": "CCOc1cc(-c2ccc(CC(=O)Nc3ccc(CC(C)(C)CO)c(C(F)(F)F)c3)cc2F)c[nH]c1=O [Example 6]",
    "IC50": "< 100 nM"
  },
  {
    "compound": "CCOc1cc(-c2ccc(CC(=O)Nc3cc(-c4cn[nH]c4)cc(C(F)(F)F)c3)c(F)c2)c[nH]c1=O [Example 36, hydrochloride]",
    "IC50": "< 100 nM"
  },
  {
    "compound": "CCOc1cc(-c2ccc(CC(=O)Nc3cc(-n4cnc(C)c4)cc(C(F)(F)F)c3)c(F)c2)c[nH]c1=O [Example 11, hydrochloride]",
    "IC50": "< 100 nM"
  },
  {
    "compound": "CCOc1cc(=O)[nH]cc1-c1ccc(CC(=O)Nc2cnc(OCCN(C)C)c(C(F)(F)F)c2)c(F)c1 [Example 10, dihydrochloride]",
    "IC50": "100 to 500 nM"
  },
  {
    "compound": "CCOc1cc(-c2ccc(CC(=O)Nc3cnc(C(C)(C)O)c(C(F)(F)F)c3)c(F)c2)c[nH]c1=O [Example 1]",
    "IC50": "< 100 nM"
  },
  {
    "compound": "CCOc1cc(-c2ccc(CC(=O)Nc3cnc(CC#N)c(C(F)(F)F)c3)c(F)c2)c[nH]c1=O [Example 14, hydrochloride]",
    "IC50": "500 to 10000 nM"
  }
]
